This section lists Ki readings for Prothrombin (Homo sapiens).
Just the number in µM, nothing appended.

smiles.representation: Cc1cc(NS(=O)(=O)c2ccccc2)cc(OCCCCCCN)c1
endpoint.unit: µM
Ki: 9
--
smiles.representation: Cc1cc(NS(=O)(=O)c2ccccc2)cc(OCCCCCCN=C(N)N)c1
endpoint.unit: µM
Ki: 7
--
smiles.representation: Cc1cc(NS(=O)(=O)c2ccccc2)cc(OCCN=C(N)N)c1
endpoint.unit: µM
Ki: 2
--
smiles.representation: Cc1cc(NS(=O)(=O)c2ccccc2)cc(OCCCN=C(N)N)c1
endpoint.unit: µM
Ki: 0.63
--
smiles.representation: Cc1cc(NS(=O)(=O)c2ccccc2)cc(OCCN)c1
endpoint.unit: µM
Ki: 240

Next molecule, please.
[Q] Param readout= Ki; system= Prothrombin (Homo sapiens); entry= Cc1cc(NS(=O)(=O)c2ccccc2)cc(OCCCCN)c1 ; returns value.
[A] 6.5

Hey, just so you know, these numbers are from ChEMBL document CHEMBL1130854.
